target: T1, human IL13 (human, UniProt P35225 35-146, biotinylated in the SPR assays (sites not given)); experiment: SPR BIAcore, biotin-IL13 on SA chip, global fit
T1 construct: Peprotech; also called hIL13; recombinant human IL13
T1 sequence (P35225 other isoform, or with tags, fused parts or gaps limits assumed): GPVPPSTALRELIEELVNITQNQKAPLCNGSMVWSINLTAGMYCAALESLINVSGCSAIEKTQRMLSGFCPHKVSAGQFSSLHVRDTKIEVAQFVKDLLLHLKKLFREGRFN
PROPERTY_NAME: kon (M⁻¹ s⁻¹)
Only the number, expressed in M⁻¹ s⁻¹, is required.

>  <BINDER>
7D2 (designed binder, N-Cap-(AR)3-C-Cap) DLGKKLLEAARAGQDDEVRILMANGADVNAFDDFGSTPLHLAARSGHLEIVEVLLKHGADVNAHDMIGDTPLHLAAYHGHLEIVEVLLKYGADVNAKDTSGTTPLHLAADSGHLEIVEVLLKHGADVNAQDKFGKTAFDISIDNGNEDLAEILQKLN

>  <kon / M⁻¹ s⁻¹>
3.06e+06

$$$$

I would be grateful if you could share the reported kon for 7C6 (designed binder, N-Cap-(AR)3-C-Cap) DLGKKLLEAARAGQDDEVRILMANGADVNAMDKYGSTPLHLAARSGHLEIVEVLLKHGADVNATDFIGDTPLHLAAYHGHLEIVEVLLKHGADVNAEDITGETPLHLAAESGHLEIVEVLLKHGADVNAQDKFGKTAFDISIDNGNEDLAEILQKLN . 4.82e+06
